Reference source: ChEMBL document CHEMBL3259807

Assay: Distribution coefficient, log D of the compound at 10 mM at pH 7.4 by pH-metric method
Assay type: physicochemical
Conditions: octanol/water
Each entry gets False if its logD at 10000 µM stays under 2, and True if its logD at 10000 µM is 2 or above.

The examples below pair each entry with its known result.
Molecular String	Qualitative Label
Cc1cc(OCc2cc(C)nn2-c2ccccc2)n(CC(=O)O)n1	False
Cc1cc(SSc2cc(C)nn2-c2ccccc2)n(-c2ccccc2)n1	True
Cc1cc(COc2cc(C)nn2-c2ccccc2)n(-c2ccccc2)n1	True
Cc1cc(COc2cc(C)nn2C2CCCC2)n(-c2ccccc2)n1	False
Cc1nn(-c2ccccc2)c(SSc2c(C(=O)c3ccccc3)c(C)nn2-c2ccccc2)c1C(=O)c1ccccc1	True

As a next step, examine the compound that follows.
Does the compound "Cc1cc(COc2cc(C)nn2-c2ccc([N+](=O)[O-])cc2)n(-c2ccccc2)n1" have recorded logD at 10000 µM that is 2 or more?
True

----------
System: PBMC
Assay: Induction of apoptosis in human PBMC assessed as apoptotic index at 10 uM after 1 hr by Annexin V/propidium iodide staining-based FACS analysis relative to IVIg
Type: cell-based
Conditions: in the assay text read “relative to vehicle” for “relative to IVIg”
Measured Quantity: Ratio
Numbers only.

# annotated cases, reported Ratio shown
Compound	Ratio
Cc1cc(CCc2cc(C)nn2-c2ccccc2)n(-c2ccccc2)n1	1
Cc1cc(O)n(Cc2cc(C)nn2-c2ccccc2)n1	1.2
Cc1cc(CNCc2cc(C)nn2-c2ccccc2)n(-c2ccccc2)n1	1.1
Cc1cc(OCc2cc(C)nn2-c2ccccc2)[nH]n1	1
Cc1cc(OCc2cc(C)nn2-c2ccccc2)n(CC2CCCCC2)n1	1
Cc1cc(COc2cc(C)nn2-c2ccc([N+](=O)[O-])cc2)n(-c2ccccc2)n1	0.8

For each of the items listed, what is its Ratio?
1. Cc1cc(Oc2c(N)c(C)nn2-c2ccccc2)n(-c2ccccc2)n1
2. Cc1cc(COc2cc(C)nn2C2CCCC2)n(-c2ccccc2)n1
3. Cc1cc(COc2cc(C)nn2-c2ccccc2)n(-c2ccccc2)n1

1.2
0.9
1.1

Below are some compounds; for each one, tell me its Ratio.
1. Cc1nn(-c2ccccc2)c(SSc2c(C(=O)c3ccccc3)c(C)nn2-c2ccccc2)c1C(=O)c1ccccc1
2. Cc1nn(-c2ccccc2)c(S)c1C(=O)c1ccccc1

[0.8, 2]

Batch request: Ratio for each of the following compounds.
1. Cc1cc(OCC2CCCN2Cc2ccccc2)n(-c2ccccc2)n1 (configuration not stated)
2. Cc1cc(SSc2cc(C)nn2-c2ccccc2)n(-c2ccccc2)n1
3. Cc1cc(OCCOc2cc(C)nn2-c2ccccc2)n(-c2ccccc2)n1
4. Cc1cc(COc2cc(C)nn2-c2ccccc2)n(Cc2ccccc2)n1
5. Cc1cc(OCc2cc(C)nn2-c2ccccc2)n(CC(=O)O)n1

1.1
1
1
1.1
1.1

I would be grateful if you could share the reported Ratio for "Cc1cc(OCc2cc(C)nn2-c2ccccc2)n(CCN)n1" .
1.1

----------
Could you please report measured pKa at 10000 µM for the items listed next?
Test: Acidic dissociation constant, pKa of the compound at 10 mM
Type: physicochemical

Molecular String	Test Result
Cc1cc(OCc2cc(C)nn2-c2ccccc2)[nH]n1	12.5
Cc1cc(OCc2cc(C)nn2-c2ccccc2)n(CC(=O)O)n1	3.4
Cc1nn(-c2ccccc2)c(S)c1C(=O)c1ccccc1	10.3

Query: pKa at 10000 µM; subject: "Cc1cc(O)n(Cc2cc(C)nn2-c2ccccc2)n1"
8.4

----------
Task for the reader: assign each of the following compounds its reported Ratio.
System: PBMC
Test: Induction of apoptosis in human PBMC assessed as apoptotic index at 100 uM after 1 hr by Annexin V/propidium iodide staining-based FACS analysis relative to IVIg
Type: cell-based
Details: in the assay text read “relative to vehicle” for “relative to IVIg”

// below: answered compounds
Molecular String	Ratio
Cc1nn(-c2ccccc2)c(SSc2c(C(=O)c3ccccc3)c(C)nn2-c2ccccc2)c1C(=O)c1ccccc1	1
Cc1nn(-c2ccccc2)c(S)c1C(=O)c1ccccc1	1.6
Cc1cc(Oc2c(N)c(C)nn2-c2ccccc2)n(-c2ccccc2)n1	1
Cc1cc(COc2cc(C)nn2C2CCCC2)n(-c2ccccc2)n1	1.2
Cc1cc(OCc2cc(C)nn2-c2ccccc2)n(CCN)n1	1

Proceeding to the next compound to report its Ratio.
Report Ratio for "Cc1cc(OCc2cc(C)nn2-c2ccccc2)n(CC(=O)O)n1" please.
1.2

----------
Experiment: Distribution coefficient, log D of the compound at 10 mM at pH 7.4 by pH-metric method
Type: physicochemical
Details: octanol/water
Record 1 (yes) whenever logD at 10000 µM is at 4 or higher; record 0 (no) when lower.

Answered examples (8):
Compound	Qualitative Label
Cc1nn(-c2ccccc2)c(S)c1C(=O)c1ccccc1	0 (no)
Cc1cc(COc2cc(C)nn2-c2ccccc2)n(Cc2ccccc2)n1	1 (yes)
Cc1cc(CCc2cc(C)nn2-c2ccccc2)n(-c2ccccc2)n1	0 (no)
Cc1cc(O)n(Cc2cc(C)nn2-c2ccccc2)n1	1 (yes)
Cc1cc(OCc2cc(C)nn2-c2ccccc2)n(CC2CCCCC2)n1	1 (yes)
Cc1cc(OCCOc2cc(C)nn2-c2ccccc2)n(-c2ccccc2)n1	0 (no)
Cc1cc(OCc2cc(C)nn2-c2ccccc2)[nH]n1	0 (no)
Cc1cc(OCC2CCCN2Cc2ccccc2)n(-c2ccccc2)n1 (stereo unspecified)	1 (yes)

Decide: is the reported value of logD at 10000 µM for "Cc1cc(CNCc2cc(C)nn2-c2ccccc2)n(-c2ccccc2)n1" equal to or greater than 4?
1 (yes)

Is logD at 10000 µM for "Cc1cc(OCc2cc(C)nn2-c2ccccc2)n(CCN)n1" at or above 4?
1 (yes)

----------
Assay: Basic dissociation constant, pKa of the compound at 10 mM
Format: physicochemical
Kindly supply the reported pKa at 10000 µM values for the records listed here.
Answers are plain numbers.

# example entries with known answers
Compound	pKa at 10000 µM
Cc1cc(CCc2cc(C)nn2-c2ccccc2)n(-c2ccccc2)n1	2.5
Cc1cc(OCCOc2cc(C)nn2-c2ccccc2)n(-c2ccccc2)n1	2.2
Cc1cc(OCc2cc(C)nn2-c2ccccc2)n(CC(=O)O)n1	7.3

Provide pKa at 10000 µM for all items below, preserving their order.
1. Cc1cc(OCC2CCCN2Cc2ccccc2)n(-c2ccccc2)n1 (stereo unspecified)
2. Cc1cc(Oc2c(N)c(C)nn2-c2ccccc2)n(-c2ccccc2)n1
3. Cc1cc(SSc2cc(C)nn2-c2ccccc2)n(-c2ccccc2)n1

1. 2.4
2. 3.4
3. 4.8

----------
Can you tell me Ratio for the items I'm about to list?
Tested on: PBMC
Assay: Induction of apoptosis in human PBMC assessed as apoptotic index at 100 uM after 1 hr by Annexin V/propidium iodide staining-based FACS analysis relative to IVIg
Type: cell-based
Settings: in the assay text read “relative to vehicle” for “relative to IVIg”
Numbers only.

Molecular String	Ratio
Cc1cc(OCc2cc(C)nn2-c2ccccc2)[nH]n1	1
Cc1cc(OCCOc2cc(C)nn2-c2ccccc2)n(-c2ccccc2)n1	1

// moving on: another record for Ratio
Look up Ratio: "Cc1cc(COc2cc(C)nn2-c2ccccc2)n(Cc2ccccc2)n1"
1

----------
Test system: PBMC
Assay: Inhibition of human PBMC-induced phagocytosis of antibody-opsonized RBC at 5 uM incubated for 1 hr prior to RBC addition measured after 2 hrs by phase-contrast microscopy
Format: functional
Returns one of Condition met or Condition not met; Condition met when inhibition at 5 µM is >= 20%.

Some solved entries appear below for comparison.
Molecule	Target	Qualitative Label
Cc1nn(-c2ccccc2)c(SSc2c(C(=O)c3ccccc3)c(C)nn2-c2ccccc2)c1C(=O)c1ccccc1	PBMC	Condition met
Cc1cc(OCCOc2cc(C)nn2-c2ccccc2)n(-c2ccccc2)n1	PBMC	Condition not met

Given "Cc1cc(COc2cc(C)nn2C2CCCC2)n(-c2ccccc2)n1" , state whether its inhibition at 5 µM is at least 20%.
Condition not met

# check: inhibition at 5 µM of "Cc1cc(OCc2cc(C)nn2-c2ccccc2)n(CCN)n1" is greater than or equal to 20%
Condition met

Is inhibition at 5 µM at least 20%? Consider Cc1cc(OCC2CCCN2Cc2ccccc2)n(-c2ccccc2)n1 (stereo unspecified)
Condition not met

----------
Test: Basic dissociation constant, pKa of the compound at 10 mM
Assay type: physicochemical
Record form. Attribute: pKa at 10000 µM. Fill in for each entry.
Answers are plain numbers.

Molecular String	pKa at 10000 µM
Cc1cc(COc2cc(C)nn2-c2ccccc2)n(-c2ccccc2)n1	2.7
Cc1cc(OCc2cc(C)nn2-c2ccccc2)[nH]n1	2.4
Cc1nn(-c2ccccc2)c(S)c1C(=O)c1ccccc1	2.9
Cc1cc(CNCc2cc(C)nn2-c2ccccc2)n(-c2ccccc2)n1	2.2

In the following, a different molecule is considered.
Recorded pKa at 10000 µM for "Cc1cc(OCc2cc(C)nn2-c2ccccc2)n(CCN)n1" , please?
2.5
